EXPERIMENTAL TARGET: T1, human IgE with the M1′ sequence (long form of membrane IgE) expressed on transduced BJAB or Daudi cells (human, UniProt P01854 116-546)
T1 construct: Full-length heavy and light chains of the U266 IgE B cell receptor, retrovirally expressed; also called IgE/M1′; IgE-M1′
T1 sequence (P01854 116-546 I515L limits assumed): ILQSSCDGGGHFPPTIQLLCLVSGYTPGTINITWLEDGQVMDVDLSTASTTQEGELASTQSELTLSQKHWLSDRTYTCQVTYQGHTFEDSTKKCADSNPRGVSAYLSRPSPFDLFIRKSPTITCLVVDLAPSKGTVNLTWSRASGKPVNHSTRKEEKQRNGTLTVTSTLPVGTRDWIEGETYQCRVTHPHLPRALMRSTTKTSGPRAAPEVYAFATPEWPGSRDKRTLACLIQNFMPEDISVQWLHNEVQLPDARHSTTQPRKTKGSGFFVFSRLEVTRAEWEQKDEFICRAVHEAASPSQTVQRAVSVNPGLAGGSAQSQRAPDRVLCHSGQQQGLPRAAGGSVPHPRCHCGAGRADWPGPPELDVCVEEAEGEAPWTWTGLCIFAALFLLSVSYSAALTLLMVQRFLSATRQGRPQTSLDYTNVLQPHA
TEST DETAILS: Scatchard analysis on cells expressing human IgE/M1′
Known Kd of a selection of binders
Please reply with the bare figure in nM and do not write the unit itself.

BINDER	NUMERIC VALUE
humanized anti-IgE/M1′ antibody 47H4.v5 (antibody, V domains shown, huIgG1; also called 47H4v5 huIgG1; 47H5 v.5) VH: EVQLVESGGGLVQPGGSLRLSCAASGFTFSDYGIAWVRQAPGKGLEWVAFISDLAYTIYYADTVTGRFTISRDNSKNTLYLQMNSLRAEDTAVYYCARDNWDAMDYWGQGTLVTVSS VL: DIQMTQSPSSLSASVGDRVTITCRSSQSLVHNNANTYLHWYQQKPGKAPKLLIYKVSNRFSGVPSRFSGSGSGTDFTLTISSLQPEDFATYYCSQNTLVPWTFGQGTKVEIKR	1.5

Please report the recorded Kd for humanized anti-IgE/M1′ antibody 26A11.v1 (antibody, V domains shown, direct CDR graft, produced as IgG in 293 cells) VH: EVQLVESGGGLVQPGGSLRLSCAASGYTFTDYYMMWVRQAPGKGLEWVGDINPNNYDTSYNQKFKGRFTISADTSKNTAYLQMNSLRAEDTAVYYCASKAYWGQGTLVTVSS VL: DIQMTQSPSSLSASVGDRVTITCRSSQDISNSLNWYQQKPGKAPKLLIYSTSRLHSGVPSRFSGSGSGTDFTLTISSLQPEDFATYYCQQGHTLPWTFGQGTKVEIKR .
1.06

Another binder to look at: murine anti-IgE/M1′ antibody 7A6 (antibody, V domains shown, mIgG1 hybridoma antibody; also called mu7A6; 7A6 mIgG1) VH: QVQLQQSGAELVRPGASVTLSCKASGYTFIDYEMHWVKQTPVHGLEWIGAIDPETGTTAYNQKFKGKATLTAAKSSSTAYMELRSLTSEDSAVYYCTRLRPHYDYDNAMDSWGQGTTLTVSS VL: DIVMSQSPSSLTVSVGEKVTLSCKSSQTLLYSTNQKNYLAWYQQKPGQSPKLLIYWASTRESGVPDRFTGSGSGTDFTLTISSVKAEDLAVYYCQQYYSYPYTFGGGTKVEIKR
0.64

And for humanized anti-IgE/M1′ antibody 47H4.v1 (antibody, V domains shown, direct CDR graft, produced as IgG) VH: EVQLVESGGGLVQPGGSLRLSCAASGFTFSDYGMAWVRQAPGKGLEWVAFISDLAYTIYYADTVTGRFTISRDNSKNTLYLQMNSLRAEDTAVYYCARDNWDAMDYWGQGTLVTVSS VL: DIQMTQSPSSLSASVGDRVTITCRSSQSLVHNNGNTYLHWYQQKPGKAPKLLIYKVSNRFSGVPSRFSGSGSGTDFTLTISSLQPEDFATYYCSQNTLVPWTFGQGTKVEIKR ?
0.37

Same question for murine anti-IgE/M1′ antibody 26A11 (antibody, V domains shown, mIgG1 hybridoma antibody; also called mu26A11; 26A11 mIgG1) VH: EVQLQQSGPELVKPGASVKMSCKASGYTFTDYYMMWVKQSHGKSLEWIGDINPNNYDTSYNQKFKGKATLTVDKSSSTAYIQLNSLTSEDSAVYYCASKAYWGQGTLVTVSA VL: DIQMTQTTSSLSASLGDRVTITCRSSQDISNSLNWYQQKPDGPVKLLIYSTSRLHSGVPSRFSGSGSGTDYSLTISNLEQEDLATYFCQQGHTLPWTFGGGTKVEIKR please.
2.3
